# STUDY_TARGET: Cytochrome P450 1A2 (Homo sapiens)
# EXPERIMENT_SUMMARY: Cytochrome panel assay with activity outcomes
# TEST_CONTEXT: recombinant CYP, pro-luciferin dealkylation, luminescence, p450-cyp1a2; series mostly up to 57.1 µM
Screen size: about 16,000 compounds; about 5,700 (36%) were called active. About 24% were inconclusive and are not listed. Calls come from the whole dose curve; as a rule, active = well fitted curve in the direction sought with a large enough effect; inconclusive = small, poorly fitted or top-dose-only effect, or effect the other way; inactive = no such curve, though single readings can be large or run the other way. The list shows a part of the results.
Write down the outcome that applies. Available outcomes: active, inactive

Some entries whose results are on file:
{"COMPOUND": "COc1ccccc1NS(=O)(=O)c1cccc(C(=O)OCC(=O)Nc2cc(C)on2)c1", "STUDY_TARGET": "Cytochrome P450 1A2 (Homo sapiens)", "CLASSIFICATION": "active"}
{"COMPOUND": "Clc1ccccc1-c1nc(-n2ccnc2)c2ccccc2n1", "STUDY_TARGET": "Cytochrome P450 1A2 (Homo sapiens)", "CLASSIFICATION": "active"}
{"COMPOUND": "COc1ccc(CCNC[C@H](O)c2ccc(O)cc2)cc1OC", "STUDY_TARGET": "Cytochrome P450 1A2 (Homo sapiens)", "CLASSIFICATION": "inactive"}
{"COMPOUND": "Cc1ccc(Nc2ncccc2C(=O)NCc2cccs2)c(C)c1", "STUDY_TARGET": "Cytochrome P450 1A2 (Homo sapiens)", "CLASSIFICATION": "active"}
{"COMPOUND": "CC(=O)CC(=O)[C@@]1(O)CC[C@@H]2[C@@H]3C=C(C)C4=CC(=O)CC[C@@H]4[C@H]3CC[C@]21C", "STUDY_TARGET": "Cytochrome P450 1A2 (Homo sapiens)", "CLASSIFICATION": "inactive"}

Record lookup: outcome of this test for Cc1ccccc1-c1nc(-n2ccnc2)c2ccccc2n1 ? active

Record lookup: outcome of this test for CCOc1nc(NCCc2ccc(OC)c(OC)c2)nc(NC(C)(C)CO)n1 ? active

Record lookup: outcome of this test for O=C(CN(Cc1ccco1)C(=O)c1ccccc1)Nc1ccc(Cl)c(Cl)c1 ? active

Record lookup: outcome of this test for O=C(CSc1nnc(-c2ccccn2)n1Cc1ccco1)Nc1ccc2c(c1)OCO2 ? inactive

Record lookup: outcome of this test for COc1ccc(Cc2n[nH]c(=O)c3ccccc23)cc1OC ? inactive

Record lookup: outcome of this test for COc1nnc(OC)c2ccccc12 ? active

Record lookup: outcome of this test for CCOc1ccc(CSC(CC(=O)O)C(=O)O)cc1 (stereo not drawn) ? inactive

Record lookup: outcome of this test for CCCn1c(N)c(C(=O)CSc2nc(C)cs2)c(=O)n(C)c1=O ? active

Record lookup: outcome of this test for C[N+](C)(C)CCN(Cc1ccc(Cl)cc1)c1ccccn1 ? inactive

Record lookup: outcome of this test for COc1cc(CNCc2ccccn2)ccc1OCc1ccc(Cl)cc1Cl ? active

Record lookup: outcome of this test for O=C(NCCCN1CCc2ccccc2C1)C1CCN(S(=O)(=O)N2CCCC2)CC1 ? inactive

Record lookup: outcome of this test for CN(CCOc1ccc(C[C@H](Nc2ccccc2C(=O)c2ccccc2)C(=O)O)cc1)c1ccccn1 ? inactive

Record lookup: outcome of this test for COc1ccc(CNC(C)(C)C)cc1Cl ? inactive

====

# STUDY_TARGET: Cytochrome P450 1A2 (Homo sapiens)
# EXPERIMENT_SUMMARY: Cytochrome panel assay with activity outcomes
# TEST_CONTEXT: recombinant CYP, pro-luciferin dealkylation, luminescence, p450-cyp1a2; series mostly up to 57.1 µM
Out of some 16,000 compounds screened, about 5,700 (36%) were called active. Inconclusive results (about 24%) are left out. Calls come from the whole dose curve; as a rule, active = well fitted curve in the direction sought with a large enough effect; inconclusive = small, poorly fitted or top-dose-only effect, or effect the other way; inactive = no such curve, though single readings can be large or run the other way. The list shows a part of the results.
Write down the outcome that applies. Available outcomes: Yes = active, No = inactive

Some entries whose results are on file:
{"COMPOUND": "Cc1ccc(Oc2nn[nH]n2)cc1", "CLASSIFICATION": "No"}
{"COMPOUND": "CC(=O)N(O)CCCCCNC(=O)CCC(=O)N(O)CCCCCNC(=O)CCC(=O)N(O)CCCCCN", "CLASSIFICATION": "No"}
{"COMPOUND": "CN(CCc1ccccn1)c1ccc2c(c1)Cc1ccccc1-2", "CLASSIFICATION": "Yes"}
{"COMPOUND": "COc1ccccc1N1CCN(CCCCNC(=O)c2ccc(-c3ccc(C(C)=O)cc3)cc2)CC1", "CLASSIFICATION": "Yes"}
{"COMPOUND": "COc1ccc(Oc2ncc3nc(-c4cccs4)c(=O)n(Cc4cccc(OC)c4)c3n2)cc1", "CLASSIFICATION": "No"}

Record lookup: outcome of this test for O=C(c1cccs1)n1nc(-c2ccc(Cl)cc2)nc1NCc1ccco1 ? Yes

Record lookup: outcome of this test for COc1cc(/C=C(/C#N)c2nc3ccccc3[nH]2)ccc1OCC(=O)Nc1ccccc1C ? No

====

# STUDY_TARGET: Cytochrome P450 1A2 (Homo sapiens) (UniProt P05177)
# Sequence (P05177 whole entry, looked up): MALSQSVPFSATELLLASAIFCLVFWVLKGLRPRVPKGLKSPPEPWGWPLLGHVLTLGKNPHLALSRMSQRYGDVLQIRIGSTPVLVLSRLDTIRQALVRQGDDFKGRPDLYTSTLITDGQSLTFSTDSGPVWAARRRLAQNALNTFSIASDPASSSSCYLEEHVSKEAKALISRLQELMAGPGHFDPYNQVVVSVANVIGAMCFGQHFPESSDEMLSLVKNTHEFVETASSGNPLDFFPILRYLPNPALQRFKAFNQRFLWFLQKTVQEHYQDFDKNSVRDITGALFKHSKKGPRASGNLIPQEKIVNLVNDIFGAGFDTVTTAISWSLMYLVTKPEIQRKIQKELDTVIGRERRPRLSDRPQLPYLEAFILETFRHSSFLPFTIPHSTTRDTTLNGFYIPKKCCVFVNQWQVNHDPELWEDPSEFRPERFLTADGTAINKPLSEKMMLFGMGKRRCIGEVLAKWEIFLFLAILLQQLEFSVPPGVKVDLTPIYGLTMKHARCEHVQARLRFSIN
# EXPERIMENT_SUMMARY: Cytochrome panel assay with activity outcomes; for activity, negative = inhibition: % is set by controls: 0 for no effect and ±100 for the full control effect
# TEST_CONTEXT: recombinant CYP, pro-luciferin dealkylation, luminescence, p450-cyp1a2; series mostly up to 57.1 µM
The whole screen tested about 16,000 compounds, of which about 5,700 (36%) were called active. Inconclusive results (about 24%) are left out. The list shows a part of the results.
MEASUREMENT_TYPE: activity, negative = inhibition

{"MOLECULE": "COC(=O)[C@@H]1O[C@@H](c2c(OC)c(OC)c(C)c(OC)c2OC)[C@H](C)[C@@H](O)[C@@H]1C", "activity, negative = inhibition": "-4.49% [at 11.4 µM] (inactive)"}
{"MOLECULE": "[N-]=[N+]=NC[C@@H]1O[C@@H](n2cnc3c(N)ncnc32)[C@@H]2O[C@@H]21", "activity, negative = inhibition": "-13.8% [at 11.4 µM] (inactive)"}
{"MOLECULE": "CN1C[C@H](c2ccccc2)C(O)([C@]2(c3ccccc3)CN(C)C[C@@H](c3ccccc3)C2=O)[C@H](c2ccccc2)C1 (stereo partly drawn)", "activity, negative = inhibition": "-5.45% [at 11.4 µM] (inactive)"}
{"MOLECULE": "Nc1ccc(S(=O)(=O)c2ccc(NC(=O)c3cccnc3)cc2)cc1", "activity, negative = inhibition": "-21.1% [at 2.29 µM] (inactive)"}
{"MOLECULE": "COc1cc(C)cc(OC)c1/C=C\\C(=O)O", "activity, negative = inhibition": "-6.92% [at 11.4 µM] (inactive)"}

activity, negative = inhibition lookup needed for C/C(CCC(=O)OC[C@@H]1O[C@H](C#Cc2ccccc2)C=C[C@@H]1Oc1ccc(C)cc1)=N/OC[C@@H](C)[C@H](OCc1ccccc1)C(C)C , thanks. -1.97% [at 11.4 µM] (inactive)

activity, negative = inhibition lookup needed for CC(=O)OC[C@H]1O[C@@H](O/N=C(\C)CCN2CCc3nc(-c4ccccc4)c(-c4ccccc4)cc3C2)[C@H](OC(C)=O)[C@@H](OC(C)=O)[C@H]1OC(C)=O , thanks. -0.893% [at 11.4 µM] (inactive)

activity, negative = inhibition lookup needed for O=C1C[C@H](c2ccccc2)[C@@H](c2ccc(Br)cc2)O1 , thanks. -6.17% [at 11.4 µM] (inactive)

====

# STUDY_TARGET: Cytochrome P450 1A2 (Homo sapiens)
# EXPERIMENT_SUMMARY: Cytochrome panel assay with activity outcomes
# TEST_CONTEXT: recombinant CYP, pro-luciferin dealkylation, luminescence, p450-cyp1a2; series mostly up to 57.1 µM
About 5,700 (36%) of roughly 16,000 compounds were called active. About 24% were inconclusive and are not listed. Calls come from the whole dose curve; as a rule, active = well fitted curve in the direction sought with a large enough effect; inconclusive = small, poorly fitted or top-dose-only effect, or effect the other way; inactive = no such curve, though single readings can be large or run the other way. This is one part of the list.
Write down the outcome that applies. Available outcomes: 1 = active, 0 = inactive

Some entries whose results are on file:
{"MOLECULE": "CC[N+](CC)(CC)CC", "CLASSIFICATION": 0}
{"MOLECULE": "CC1CCN(CCCn2c(=S)[nH]c3ccc(N4CCOCC4)cc3c2=O)CC1", "CLASSIFICATION": 0}
{"MOLECULE": "COc1ccc(C(=O)N2CCCCC2)cc1S(=O)(=O)Nc1ccccc1", "CLASSIFICATION": 0}
{"MOLECULE": "CCN(CC)S(=O)(=O)c1ccc(OC)c(NC(=O)c2cc([N+](=O)[O-])ccc2Cl)c1", "CLASSIFICATION": 0}
{"MOLECULE": "O=C(Cn1nnc2ccccc21)N1CCCCC1", "CLASSIFICATION": 0}
{"MOLECULE": "CC(=O)Nc1ccc(OCC(O)Cn2c3ccccc3c3ccccc32)c(C)c1 (stereo not given)", "CLASSIFICATION": 1}

Record lookup: outcome of this test for O=S(=O)(c1ccccc1)N1CCC2(CCCN(Cc3nccs3)C2)CC1 ? 0

Record lookup: outcome of this test for Cc1ccc(SCC(=O)NNC(=O)C2CCCCC2)cc1 ? 0

Record lookup: outcome of this test for CC(C)CN1CC[C@@]2(CCCN(S(=O)(=O)c3ccccc3)C2)C1 ? 1

Record lookup: outcome of this test for Cc1ccccc1[C@@H](OCCN(C)C)c1ccccc1 ? 0

Record lookup: outcome of this test for Cc1ccccc1OCC(O)Cn1c2ccccc2c2ccccc21 (stereo not given) ? 1

Record lookup: outcome of this test for COc1ccc(NC(=O)CCOc2ccccc2)cc1 ? 1

Record lookup: outcome of this test for CCN1CCN(C(=O)N[C@H](C(=O)N[C@@H]2C(=O)N3C(C(=O)O)=C(CSc4nnnn4C)CS[C@@H]23)c2ccc(O)cc2)C(=O)C1=O ? 0

Record lookup: outcome of this test for CC(=O)Nc1ccc(OCC(O)Cn2cnc3ccccc32)cc1 (stereo not given) ? 0

Record lookup: outcome of this test for CC(C)(C)c1cc(/C=C(\C#N)C(N)=S)cc(C(C)(C)C)c1O ? 1
